Please respond with reported fold over background (A450) for every item in the list.
Target: T1, mouse TREM2 full length stalk region peptide (aa 131-169) (mouse, UniProt Q99NH8 131-169, biotinylated (site not stated))
T1 peptide (looked up): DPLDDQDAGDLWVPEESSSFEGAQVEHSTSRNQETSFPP
Test: ELISA on biotinylated peptide captured by streptavidin; A450 normalised to isotype control
Method: TREM2 antibodies were evaluated for binding to human and mouse TREM2 stalk region peptides. […] Antibody binding to TREM2 stalk peptides was detected using standard sandwich ELISA. Briefly, a 96-well half-area ELISA plate was coated with streptavidin overnight at 4° C. […] Antibodies bound to peptide were detected with anti-human kappa-HRP secondary antibody (Bethyl Laboratories, Inc.) diluted in 1% BSA/PBS. […]
// return the numeric value with its unit appended

Ask: // Input: CL0020205 (antibody, V domains shown, also called Clone CL0020205) VH: EVQLQQSGPVLVKPGASVKMSCKASGYTFTDYYVHWVKQSHGKSLEWIGLINPYTGTTSYNQRFRVKATLTVDKSSSTAYMEVNSLTSEDSAVYYCARSRVYYGSSLFAFWGQGTLVTVSA VL: DIVMTQSPSSLSVSAGEKVTMSCKSSQSLLNSGNQKNYLAWYQQKPGQPPKLLIYGASTRESGVPDRFTGSGSGTDFTLTISSVQAEDLAVYYCQNDHSYPYTFGGGTKLEIK . Output its fold over background (A450) only.
Reply: 1.1 fold

Ask: // Input: CL0020315 (antibody, V domains shown, also called Clone CL0020315) VH: EVQLQQSGPELVKPGASVKISCKASGYTFTDYNIHWVKQSHGKSLEWIGYIYPYNGVTGYNQKFKSKATLTVDNSSSTAYMELRSLTSEDSAVYYCARSRVDGDYWGQGTTLTVSS VL: DVVMTQTPLSLPVSLGDQASISCRSSQSLVHSNGNTYLHWYLQKPGQSPKLLIYKISNRFSGVPDRFSGSGSGTDFTLKISRVEAEDLGVYFCSQSTHVPLTFGAGTKLELK . Output its fold over background (A450) only.
Reply: 6.8 fold

Ask: // Input: CL0020210 (antibody, V domains shown, also called Clone CL0020210; CL020210) VH: QIQLVQSGPELRKPGETVKISCKASGYTFTTYGMSWVKQAPGKGLKWMGWINTYSGLPRHSDDFKGRFAFSLETSASTAYLQINNLKNEDTATYFCAREVYYGSRKTAWFAYWGQGTLVTVSA VL: DLVMSQSPSSLAVSVGERITMTCKSSQSLLYSNDQKNYLAWYQQIPGQSPKLLLYWASTRESGVPDRFTGSGSGTDFTLTISSVKAEDLAVYFCQQYYNYPPTFGAGTKLELK . Output its fold over background (A450) only.
Reply: 25 fold
